- Test system: MDA-MB-231 cells
- assayRemarks: Cell anti-proliferation / toxicity assay (CCK-8), MDA-MB-231
- Assay type: cell-based
- setupConditions: Homo sapiens, MDA-MB-231; Supplementary Table 4; 72 h, CCK-8; >100 = not reached at 100 μM; read-out: EC50 MDA-MB-231
Consider the following compounds and their measured EC50 readings.
observable: EC50 (µM)

1. COc1ccc2c(NC3CCN(C)CC3)nc(NCCNC(=O)CCCCC(=O)NO)nc2c1 [Compound 15a]
77.6
2. COc1ccc2c(NC3CCN(Cc4ccccc4)CC3)nc(NCCNC(=O)CCCC(=O)NO)nc2c1 [Compound 16]
38.1
3. COc1cc2nc(NCCNC(=O)CCCCCC(=O)NO)nc(NC3CCN(Cc4ccccc4)CC3)c2cc1OC [Compound 5b]
12.3
4. COc1cc2c(NC3CCN(C(C)C)CC3)nc(N3CCCN(C)CC3)nc2cc1OCCCCCCC(=O)NO [Compound 26]
31.3

---

- System: MDA-MB-231 cells
- assayRemarks: Cell anti-proliferation / toxicity assay (CCK-8), MDA-MB-231
- Assay type: cell-based
- setupConditions: Homo sapiens, MDA-MB-231; Supplementary Table 4; 72 h, CCK-8; >100 = not reached at 100 μM; read-out: EC50 MDA-MB-231
# reported EC50; entries follow
observable: EC50

1) COc1ccc2c(NC3CCN(Cc4ccccc4)CC3)nc(NCCNC(=O)CCCCC(=O)NO)nc2c1 [Compound 15]
95.2 µM
2) COc1cc2nc(N3CCCN(C)CC3)nc(NC3CCN(C(=O)CCCCCCC(=O)NO)CC3)c2cc1OC [Compound 19]
> 100 µM
3) COc1cc2nc(NCCNC(=O)CCCC(=O)NO)nc(NC3CCN(C(C)C)CC3)c2cc1OC [Compound 7a]
> 100 µM
4) COc1ccc2c(NC3CCN(C)CC3)nc(NCCNC(=O)CCCC(=O)NO)nc2c1 [Compound 16a]
90.5 µM
5) COc1cc2nc(NCCNC(=O)CCCCCC(=O)NO)nc(NC3CCN(C(C)C)CC3)c2cc1OC [Compound 5a]
> 100 µM
6) COc1ccc2c(NCCNC(=O)CCCCCCC(=O)NO)nc(N3CCCN(C)CC3)nc2c1 [Compound 21]
> 100 µM
7) COc1cc2nc(N3CCCN(C)CC3)nc(NC3CCN(C(=O)CCCCCC(=O)NO)CC3)c2cc1OC [Compound 20]
> 100 µM
8) COc1cc2nc(NCCNC(=O)CCCC(=O)NO)nc(NC3CCN(C)CC3)c2cc1OC [Compound 7]
> 100 µM

---

- System: MDA-MB-231 cells
- assayRemarks: Cell anti-proliferation / toxicity assay (CCK-8), MDA-MB-231
- Assay type: cell-based
- setupConditions: Homo sapiens, MDA-MB-231; Table 6; 72 h, CCK-8; mean ± SD of triplicates; read-out: EC50 MDA-MB-231
pEC50: −log10 of the molar value.
observable: pEC50

1) O=C(CCCCCCC(=O)Nc1ccccc1)NO [SAHA, reference compound]
5.54
2) COc1ccc2c(NC3CCN(Cc4ccccc4)CC3)nc(NCCNC(=O)CCCCCC(=O)NO)nc2c1
5.00
3) COc1cc2nc(N3CCCN(C)CC3)nc(NC3CCN(Cc4ccccc4)CC3)c2cc1OC [BIX-01294, reference compound]
5.67
4) COc1ccc2c(NC3CCN(Cc4ccccc4)CC3)nc(NCCNC(=O)CCCCCCC(=O)NO)nc2c1
4.05
